All values here come from patent US20180057596A1.

Below is a list of entries, each paired with its recorded koff value.
Target: T1, cynomolgus IL-4Rα HIS FLAG (cynomolgus)
T1 construct: also called Cyno IL4Rα HIS FLAG; not shown: HIS and FLAG tags and any vector-encoded linker of the cynomolgus HIS FLAG construct
T1 chain: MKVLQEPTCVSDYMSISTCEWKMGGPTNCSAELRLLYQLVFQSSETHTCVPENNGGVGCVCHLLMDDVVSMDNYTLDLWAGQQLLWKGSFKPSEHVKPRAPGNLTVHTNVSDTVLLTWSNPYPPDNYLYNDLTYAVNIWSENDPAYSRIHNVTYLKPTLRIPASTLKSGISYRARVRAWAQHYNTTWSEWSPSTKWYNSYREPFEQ
Experiment: SPR (BIAcore 2000), IgG captured on Protein G', receptor as analyte, 1:1 Langmuir
Protocol: In brief, Protein G′ (Sigma Aldrich, P4689) was covalently coupled to the surface of a CM5 sensor chip using standard amine coupling reagents according to manufacturer's instructions (BIAcore). This Protein G′ surface was used to capture a constant amount of purified anti-IL4R• antibodies or isotype control via the Fc domain. […] The resulting sensorgrams were evaluated using BIA evaluation 4.1 software and fitted to 1:1 Langmuir binding model, to provide the relative binding data. […]
recorded.endpoint: koff (s⁻¹)

- Antibody 37 IgG (antibody, V domains shown) VH: QVQLVQSGAEVKKPGASVKVSCKASGYAFTSYYMHWARQAPGQGLEWMGIINPRGGSTSYAQKFQGRVAMTRDTSTSTVYMELSSLRPEDTAVYYCARGKYWMYDWGKGTLVTVSS VL: QSVLTQPPSVSAAPGQKVTISCSGGGSSIGNSYVSWYQQLPGTAPKLLIYDNNKRPSGVPDRFSGSKSGTSATLAITGLQTGDEADYYCGTWDTSPVWEWPFGTGTKLTVL: 0.000688
- Antibody 37GL IgG (antibody, V domains shown, germlined IgG; also called Antibody 37 (FGL)) VH: QVQLVQSGAEVKKPGASVKVSCKASGYAFTSYYMHWVRQAPGQGLEWMGIINPRGGSTSYAQKFQGRVTMTRDTSTSTVYMELSSLRSEDTAVYYCARGKYWMYDWGKGTLVTVSS VL: QSVLTQPPSVSAAPGQKVTISCSGGGSSIGNSYVSWYQQLPGTAPKLLIYDNNKRPSGIPDRFSGSKSGTSATLGITGLQTGDEADYYCGTWDTSPVWEWPFGTGTKLTVL: 0.00108
- Antibody 9 IgG (antibody, V domains shown) VH: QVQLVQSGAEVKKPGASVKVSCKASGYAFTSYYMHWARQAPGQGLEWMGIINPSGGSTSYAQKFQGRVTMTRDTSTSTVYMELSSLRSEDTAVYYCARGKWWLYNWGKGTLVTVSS VL: QSVLTQPPSVSAAPGQKVTISCSGGSSNIGNSYVSWYQQLPGTAPKLLIYDNNKRPSGIPDRFSGSKSGTSATLAITGLQTGDEADYYCGTWDTSTTMYPLFGTGTKLTVL: 0.0163
